Target: Papain (Carica papaya, UniProt P00784)
Sequence (P00784 whole entry): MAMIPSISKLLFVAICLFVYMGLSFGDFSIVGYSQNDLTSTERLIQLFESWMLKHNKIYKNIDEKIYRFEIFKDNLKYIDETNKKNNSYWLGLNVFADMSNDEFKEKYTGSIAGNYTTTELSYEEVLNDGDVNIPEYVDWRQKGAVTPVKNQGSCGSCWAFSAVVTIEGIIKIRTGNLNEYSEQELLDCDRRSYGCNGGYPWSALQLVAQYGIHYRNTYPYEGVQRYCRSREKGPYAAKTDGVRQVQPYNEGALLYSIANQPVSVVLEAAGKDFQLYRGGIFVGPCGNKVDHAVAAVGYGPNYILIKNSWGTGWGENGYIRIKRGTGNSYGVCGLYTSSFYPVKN
Assay: Inhibitory activity of alpha-ketoesters towards papain at pH 6.0
assay_readout: Ki (µM)
Express the result in µM but write the number alone.

Field: example entries. Status: answers known.
CCC(NC(=O)C(CC(C)C)NC(=O)OCc1ccccc1)C(=O)C(=O)OCc1ccccc1 (stereo not given)    40
CCC(NC(=O)C(CC(C)C)NC(=O)OCc1ccccc1)C(=O)C(=O)NCCc1ccccc1 (stereo not given)    38
CCC(NC(=O)C(CC(C)C)NC(=O)OCc1ccccc1)C(=O)C(=O)O (stereo not given)    13.5
CCNC(=O)C(=O)C(Cc1ccccc1)NC(=O)C(CC(C)C)NC(=O)OCc1ccccc1 (stereo not given)    45

Please turn your attention to the following entry.
Enter measured Ki, system Papain (Carica papaya, UniProt P00784), for the compound shown: CCCC(NC(=O)C(CC(C)C)NC(=O)OCc1ccccc1)C(=O)C(=O)OCC (stereo not given)
150

---

Molecular target: Calpain 1 (Homo sapiens)
Sequence (P04632 whole entry): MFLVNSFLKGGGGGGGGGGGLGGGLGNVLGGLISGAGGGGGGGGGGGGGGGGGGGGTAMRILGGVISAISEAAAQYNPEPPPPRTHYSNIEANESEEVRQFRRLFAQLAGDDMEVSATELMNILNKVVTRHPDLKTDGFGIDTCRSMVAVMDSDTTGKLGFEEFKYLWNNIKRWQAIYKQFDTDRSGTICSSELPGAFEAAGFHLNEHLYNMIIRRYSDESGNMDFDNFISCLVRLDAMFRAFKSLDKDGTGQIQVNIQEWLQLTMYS
Sequence (P07384 whole entry): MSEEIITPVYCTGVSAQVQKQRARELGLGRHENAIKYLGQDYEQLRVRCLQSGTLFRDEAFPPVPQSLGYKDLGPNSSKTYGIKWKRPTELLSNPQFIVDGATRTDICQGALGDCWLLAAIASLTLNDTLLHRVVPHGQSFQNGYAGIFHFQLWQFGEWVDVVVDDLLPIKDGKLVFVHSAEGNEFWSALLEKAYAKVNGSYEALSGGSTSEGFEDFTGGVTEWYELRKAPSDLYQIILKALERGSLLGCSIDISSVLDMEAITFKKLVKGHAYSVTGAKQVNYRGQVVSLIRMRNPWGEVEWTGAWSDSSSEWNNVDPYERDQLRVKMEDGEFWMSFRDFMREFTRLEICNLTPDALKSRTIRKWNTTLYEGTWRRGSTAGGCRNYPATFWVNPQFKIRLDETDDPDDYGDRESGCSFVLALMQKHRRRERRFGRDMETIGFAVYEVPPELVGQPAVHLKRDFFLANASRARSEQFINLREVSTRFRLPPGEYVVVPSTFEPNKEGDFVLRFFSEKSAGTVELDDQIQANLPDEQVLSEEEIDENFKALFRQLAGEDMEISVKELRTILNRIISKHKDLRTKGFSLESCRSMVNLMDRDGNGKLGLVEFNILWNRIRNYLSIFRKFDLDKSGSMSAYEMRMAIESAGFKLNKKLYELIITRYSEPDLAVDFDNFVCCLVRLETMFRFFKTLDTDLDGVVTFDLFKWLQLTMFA
Experiment: Inhibitory activity of alpha-keto esters towards calpain 1 at pH 8.0.
Sorting guide: entries reporting Ki beneath 300 nM go in the TRUE pile, the rest go in the FALSE pile.

Known results for molecules:
CCCCC(NC(=O)C(CC(C)C)NC(=O)OCc1ccccc1)C(=O)C(=O)OCC (centres undefined)    FALSE
CC(C)CC(NC(=O)OCc1ccccc1)C(=O)NC(Cc1ccccc1)C(=O)C(=O)OCc1ccccc1 (centres undefined)    FALSE
CCC(NC(=O)C(CC(C)C)NC(=O)OCc1ccccc1)C(=O)C(=O)NCCCc1ccccc1 (centres undefined)    FALSE
CCCCOC(=O)C(=O)C(Cc1ccccc1)NC(=O)C(CC(C)C)NC(=O)OCc1ccccc1 (centres undefined)    FALSE
CC(C)CC(NC(=O)OCc1ccccc1)C(=O)NC(Cc1ccccc1)C(=O)C(N)=O (centres undefined)    FALSE
CCCCCCCCNC(=O)C(=O)C(CC)NC(=O)C(CC(C)C)NC(=O)OCc1ccccc1 (centres undefined)    FALSE
CCNC(=O)C(=O)C(Cc1ccccc1)NC(=O)C(CC(C)C)NC(=O)OCc1ccccc1 (centres undefined)    TRUE
CC(C)CC(NC(=O)OCc1ccccc1)C(=O)NC(Cc1ccccc1)C(=O)C(=O)O (centres undefined)    TRUE

Confirm or reject: Ki of CCCC(NC(=O)C(CC(C)C)NC(=O)OCc1ccccc1)C(=O)C(=O)NCC (centres undefined) lies strictly below 300 nM
TRUE

---

As a worked illustration, we turn to pKi data collected for UniProt:P07688.
Scale for pKi: -log10 of concentration given in mol/L; no unit attached.

CCCCOC(=O)C(=O)C(CC)NC(=O)C(CC(C)C)NC(=O)OCc1ccccc1 (stereo not given)    5.40
CCCC(NC(=O)C(CC(C)C)NC(=O)OCc1ccccc1)C(=O)C(=O)OCC (stereo not given)    4.60
CCCCCCCCCNC(=O)C(=O)C(CC)NC(=O)C(CC(C)C)NC(=O)OCc1ccccc1 (stereo not given)    3.82
CCCCNC(=O)C(=O)C(CC)NC(=O)C(CC(C)C)NC(=O)OCc1ccccc1 (stereo not given)    4.89

Please turn your attention to the following entry.
Retrieve pKi measured for CCC(NC(=O)C(CC(C)C)NC(=O)OCc1ccccc1)C(=O)C(=O)OC (stereo not given) and print it.
4.77
